This listing pairs compounds with measured pIC50.
# Tested on: FaDu
# EXPERIMENT NOTES: In vitro cytotoxicity assay (CellTiter-Glo), FaDu
# Format: cell-based, Human
# DETAILS: Homo sapiens, FaDu, 144 h, read-out: Cytotoxicity IC50
// pIC50 here means minus log10 of the molar concentration (mol/L)

These solved cases illustrate the format of a correct answer.
CC[C@@]1(O)C(=O)OCc2c1cc1n(c2=O)Cc2c-1nc1cc(F)c(C)c3c1c2[C@@H](NC(=O)C1OC(O)C(O)C1O)CC3 (stereo partly drawn); 8.15
CC[C@@]1(O)C(=O)OCc2c1cc1n(c2=O)Cc2c-1nc1cc(F)c(C)c3c1c2[C@@H](NC(=O)[C@@H]1C[C@H]1CO)CC3 (single isomer, unassigned); 8.72
CC[C@@]1(O)C(=O)OCc2c1cc1n(c2=O)Cc2c-1nc1cc(F)c(C)c3c1c2[C@@H](NC(=O)c1coc(CO)n1)CC3; 8.52

Consider the compound CC[C@@]1(O)C(=O)OCc2c1cc1n(c2=O)Cc2c-1nc1cc(F)c(C)c3c1c2[C@@H](NC(=O)c1cc(CO)[nH]n1)CC3 tested on FaDu; state its pIC50.
8.00

---

# EXPERIMENT NOTES: physchem
# DETAILS: 25 °C, pH 7.4, aqueous buffer, kinetic from dmso stock
Assign class by solubility at 30 min: not lower than 20 µM means Condition met; lower than 20 µM means Condition not met.

Some solved entries appear below for comparison.
CC[C@@]1(O)C(=O)OCc2c1cc1n(c2=S)Cc2c-1nc1cc(F)c(C)c3c1c2[C@@H](NC(=S)CO)CC3 [Compound 148]; Condition not met
CC[C@@]1(O)C(=O)OCc2c1cc1n(c2=O)Cc2c-1nc1cc(F)c(C)c3c1c2[C@@H](NC(=O)[C@@H]1C[C@H]1CO)CC3 (single isomer, unassigned) [Compound 111-A]; Condition met
CC(C)NCC(O)COc1cccc2ccccc12 (centres unmarked) [Propranolol, propranolol, reference compound]; Condition met
CC[C@@]1(O)C(=O)OCc2c1cc1n(c2=O)Cc2c-1nc1cc(F)c(C)c3c1c2[C@@H](NCc1cnnn1CCO)CC3 [Compound 109]; Condition not met
CC[C@@]1(O)C(=O)OCc2c1cc1n(c2=O)Cc2c-1nc1cc(F)c(C)c3c1c2[C@@H](Nc1c(NCC(O)CO)c(=O)c1=O)CC3 (some centres unmarked) [Compound 115]; Condition met

Item CC[C@@]1(O)C(=O)OCc2c1cc1n(c2=O)Cc2c-1nc1cc(F)c(C)c3c1c2[C@@H](Nc1c(NC(CO)(CO)CO)c(=O)c1=O)CC3 [Compound 18] with solubility at 30 min of 20 µM or above?
Condition not met

Is solubility at 30 min at least 20 µM? Consider CC[C@@]1(O)C(=O)OCc2c1cc1n(c2=O)Cc2c-1nc1cc(F)c(C)c3c1c2[C@@H](NC(=O)C1(O)COC1)CC3 [Compound 159]
Condition met

Record CC[C@@]1(O)C(=O)OCc2c1cc1n(c2=O)Cc2c-1nc1cc(F)c(C)c3c1c2[C@@H](NC(=O)OCCO)CC3 [Compound 22] ; criterion: solubility at 30 min no lower than 20 µM. Met?
Condition met

---

# Test system: FaDu
# EXPERIMENT NOTES: In vitro cytotoxicity assay (CellTiter-Glo), FaDu
# Type: cell-based, Human
# DETAILS: Homo sapiens, FaDu, 144 h, read-out: Cytotoxicity IC50
OBSERVED PROPERTY: pIC50
Please note pIC50 is a logarithmic value: minus log10 of concentration in mol/L. Answer with that number alone.

Worked examples follow.
CC[C@@]1(O)C(=O)OCc2c1cc1n(c2=O)Cc2c-1nc1cc(F)c(C)c3c1c2[C@@H](NC(=O)NCCO)CC3; 8.54
CC[C@@]1(O)C(=O)OCc2c1cc1n(c2=S)Cc2c-1nc1cc(F)c(C)c3c1c2[C@@H](NC(=S)[C@H]1C[C@@H]1CO)CC3; 9.52
CC[C@@]1(O)C(=O)OCc2c1cc1n(c2=O)Cc2c-1nc1cc(F)c(C)c3c1c2[C@@H](Nc1c(NC(CO)(CO)CO)c(=O)c1=O)CC3; 7.37
CC[C@@]1(O)C(=O)OCc2c1cc1n(c2=O)Cc2c-1nc1cc(F)c(C)c3c1c2[C@@H](NC(=O)CCC1OCCO1)CC3; 8.82

Quote pIC50 reported for CC[C@@]1(O)C(=O)OCc2c1cc1n(c2=O)Cc2c-1nc1cc(F)c(C)c3c1c2[C@@H](NC(=O)C1(O)COC1)CC3 please.
8.70

Give a short answer stating reported pIC50 for CC[C@@]1(O)C(=O)OCc2c1cc1n(c2=O)Cc2c-1nc1cc(F)c(C)c3c1c2[C@@H](NC(=S)CO)CC3 .
9.05

---

# Tested on: HT29
# EXPERIMENT NOTES: In vitro cytotoxicity assay (CellTiter-Glo), HT29
# Type: cell-based, Human
# DETAILS: HT29 cells, 6 days incubation, mean of IC50 values; read-out: Cytotoxicity IC50
OBSERVED PROPERTY: pIC50
Scale for pIC50: -log10 of concentration given in mol/L; no unit attached.

Find pIC50 for CC[C@@]1(O)C(=O)OCc2c1cc1n(c2=O)Cc2c-1nc1cc(F)c(C)c3c1c2[C@@H](NC(=O)CO)CC3 on HT29 and write it down.
8.16

---

Consider the following compounds and their measured solubility at 30 min readings.
# EXPERIMENT NOTES: physchem
# DETAILS: 25 °C, pH 7.4, aqueous buffer, kinetic from dmso stock
Numbers only here, please. The scale is µM.

CC[C@@]1(O)C(=O)OCc2c1cc1n(c2=O)Cc2c-1nc1cc(F)c(C)c3c1c2[C@@H](NC(=O)CCC(=O)NCC(O)CO)CC3 (stereo partly shown) [Compound 117]; 30
CC[C@@]1(O)C(=O)OCc2c1cc1n(c2=O)Cc2c-1nc1cc(F)c(C)c3c1c2[C@@H](N(CCO)C(C)=O)CC3 [Compound 136]; 23
CC[C@@]1(O)C(=O)OCc2c1cc1n(c2=O)Cc2c-1nc1cc(F)c(C)c3c1c2[C@@H](NC(=O)CCC1OCCO1)CC3 [Compound 188]; 6

Using known records, supply solubility at 30 min for CC[C@@]1(O)C(=O)OCc2c1cc1n(c2=O)Cc2c-1nc1cc(F)c(C)c3c1c2[C@@H](NC(=O)Cc1cn(CCO)nn1)CC3 [Compound 66]
21

Consider the compound CC[C@@]1(O)C(=O)OCc2c1cc1n(c2=O)Cc2c-1nc1cc(F)c(C)c3c1c2[C@@H](NCc1cn(CCO)nn1)CC3 [Compound 108] . State its measured solubility at 30 min.
10

Give the reported solubility at 30 min for this compound. CC[C@@]1(O)C(=O)OCc2c1cc1n(c2=S)Cc2c-1nc1cc(F)c(C)c3c1c2[C@@H](N)CC3 [Compound 107]
15

Using the record for CC[C@@]1(O)C(=O)OCc2c1cc1n(c2=O)Cc2c-1nc1cc(F)c(C)c3c1c2[C@@H](NC(=O)NCC(O)CO)CC3 (stereo partly shown) [Compound 118] , state its measured solubility at 30 min.
30

Specify reported solubility at 30 min for the compound shown: CC[C@@]1(O)C(=O)OCc2c1cc1n(c2=O)Cc2c-1nc1cc(F)c(C)c3c1c2[C@@H](NC(=O)NCCO)CC3 [Compound 42]
8

---

# System: HT29
# EXPERIMENT NOTES: In vitro cytotoxicity assay (CellTiter-Glo), HT29
# Format: cell-based, Human
# DETAILS: Homo sapiens, HT-29, 144 h, read-out: Cytotoxicity IC50
pIC50 overview
Scale: negative log10 of molar concentration, which is what pIC50 denotes.

Look over these answered cases.
CC[C@@]1(O)C(=O)OCc2c1cc1n(c2=O)Cc2c-1nc1cc(F)c(C)c3c1c2[C@@H](NC(=O)c1cc(CO)[nH]n1)CC3; 6.20
CC[C@@]1(O)C(=O)OCc2c1cc1n(c2=O)Cc2c-1nc1cc(F)c(C)c3c1c2[C@@H](Nc1c(NC(CO)(CO)CO)c(=O)c1=O)CC3; 6.75
CC[C@@]1(O)C(=O)OCc2c1cc1n(c2=O)Cc2c-1nc1cc(F)c(C)c3c1c2[C@@H](NCCO)CC3; 8.68

Field: next compound
Tell me pIC50 reported for CC[C@@]1(O)C(=O)OCc2c1cc1n(c2=S)Cc2c-1nc1cc(F)c(C)c3c1c2[C@@H](NC(=S)[C@H]1C[C@@H]1CO)CC3
8.80

---

# System: MCF7
# EXPERIMENT NOTES: In vitro cytotoxicity assay (CellTiter-Glo), MCF7
# Type: cell-based, Human
# DETAILS: MCF7 cells, 6 days incubation, mean of IC50 values; read-out: Cytotoxicity IC50
OBSERVED PROPERTY: pIC50
Here pIC50 is given on a logarithmic scale as minus log10 of the concentration in mol/L.

Retrieve pIC50 measured for CC[C@@]1(O)C(=O)OCc2c1cc1n(c2=O)Cc2c-1nc1cc(F)c(C)c3c1c2[C@@H](NC(=O)CO)CC3 and print it.
8.57
